Recorded pIC50, one value per entry.
target: PTP1B (Homo sapiens (Human)); test: pNPP inhibition assay against PTP1B; assay type: biochemical; conditions: pNPP at Km of the PTP
Sequence (P18031 3-277): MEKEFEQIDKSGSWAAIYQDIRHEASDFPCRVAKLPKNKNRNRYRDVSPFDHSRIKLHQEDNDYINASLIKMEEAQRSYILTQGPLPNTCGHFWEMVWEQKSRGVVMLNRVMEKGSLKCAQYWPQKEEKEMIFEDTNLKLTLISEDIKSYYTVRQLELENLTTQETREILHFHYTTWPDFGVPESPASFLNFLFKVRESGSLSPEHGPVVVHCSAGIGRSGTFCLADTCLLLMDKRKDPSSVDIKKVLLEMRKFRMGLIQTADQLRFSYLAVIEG
pIC50: −log10 of the molar value.
PROPERTY NAME: pIC50

- O=C(O)C(=O)Nc1ccc(C#Cc2ccc(OCc3ccccc3)cc2)cc1 [Compound 4r]: 4.41
- O=C(O)C(=O)Nc1ccc(C#Cc2ccc(C(F)(F)F)cc2C(F)(F)F)cc1 [Compound 4x]: < 4.52
- O=C(O)C(=O)Nc1ccc(C#Cc2ccccc2)cc1 [Compound 4]: < 4.00

---

Recorded pIC50, one value per entry.
target: SHP2 (Homo sapiens (Human), UniProt Q06124); test: pNPP inhibition assay against SHP2; type: biochemical; conditions: pNPP at Km of the PTP
Sequence (Q06124 247-517): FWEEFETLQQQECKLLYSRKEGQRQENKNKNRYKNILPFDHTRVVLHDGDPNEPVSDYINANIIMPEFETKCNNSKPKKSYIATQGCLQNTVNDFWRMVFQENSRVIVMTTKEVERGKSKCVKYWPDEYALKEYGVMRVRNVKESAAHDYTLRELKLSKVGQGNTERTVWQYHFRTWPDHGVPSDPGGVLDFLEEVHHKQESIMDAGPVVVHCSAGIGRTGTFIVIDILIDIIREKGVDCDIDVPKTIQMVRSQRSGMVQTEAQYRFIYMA
pIC50: −log10 of the molar value.
PROPERTY NAME: pIC50

* O=C(O)C(=O)Nc1ccc(C#Cc2cc(C(F)(F)F)cc(C(F)(F)F)c2)cc1 | < 4.30
* O=C(O)C(=O)Nc1ccc(C#Cc2ccc(C(F)(F)F)cc2C(F)(F)F)cc1 | < 4.52
* CC(C)(C)OC(=O)Nc1ccc(C#Cc2ccc(NC(=O)C(=O)O)cc2)cc1 | < 4.30
* O=C(O)C(=O)Nc1ccc(C#Cc2ccc(C(F)(F)F)cc2)cc1 | < 4.30
* CC(C)(C)c1ccc(C#Cc2ccc(NC(=O)C(=O)O)cc2)cc1 | < 4.30
* O=C(O)C(=O)Nc1cccc(-c2ccccc2)c1 | < 4.00
* O=C(O)C(=O)Nc1ccc(C#Cc2ccccc2)cc1 | < 4.00
* O=C(O)C(=O)Nc1ccccc1 | < 4.00
* CN(C)c1cc(O)c(C(=O)O)cc1C#Cc1ccc(NC(=O)C(=O)O)cc1 | 4.11
* COC(=O)c1ccc(C#Cc2ccc(NC(=O)C(=O)O)cc2)cc1O | < 4.30
* COC(=O)c1cc(C#Cc2cccc(NC(=O)C(=O)O)c2)c(N(C)C)cc1O | < 4.30
* O=C(O)C(=O)Nc1ccc(C#Cc2ccc(C(F)(F)F)cc2Cl)cc1 | < 4.52
* NS(=O)(=O)c1ccc(C#Cc2ccc(NC(=O)C(=O)O)cc2)cc1 | < 4.30
* O=C(O)C(=O)Nc1ccc(/C=C\c2ccccc2)cc1 | < 4.52
* O=C(O)C(=O)Nc1ccc(C#Cc2cccc(C(F)(F)F)c2)cc1 | < 4.30
* COC(=O)c1ccc(C#Cc2ccc(NC(=O)C(=O)O)cc2)cc1 | 4.28
* O=C(O)C(=O)Nc1ccc(C#Cc2ccc(OCc3ccccc3)cc2)cc1 | 4.82
* O=C(O)C(=O)Nc1ccc(C#Cc2ccc(OC(F)(F)F)cc2)cc1 | < 4.30
* O=C(O)C(=O)Nc1ccc(C#Cc2ccc(C(F)(F)F)cc2Br)cc1 | 4.82
* N#Cc1cc(C(F)(F)F)ccc1C#Cc1ccc(NC(=O)C(=O)O)cc1 | 4.97

The measured values listed here are drawn from patent US11192850B2.
